assay: photoluminescence quantum yield (fraction); solvent given as SMILES; conditions: in Cc1ccccc1
For each of the compounds below, state its photoluminescence quantum yield.
Write the value as a bare number.

## Input Entry COc1cccc(C2=C(c3ccc(C(C)(C)C)cc3)C(c3ccc(C(C)(C)C)cc3)=[N+]3C2=C(c2ccccc2)c2c(-c4cccc(OC)c4)c(-c4ccc(C(C)(C)C)cc4)c(-c4ccc(C(C)(C)C)cc4)n2[B-]3(F)F)c1 : reported photoluminescence quantum yield = ?
## Output 0.54

## Input Entry CCC1=C(C)C2=C(c3cc(C(=O)Cl)cc(C(=O)Cl)c3)c3c(C)c(CC)c(C)n3[B-](F)(F)[N+]2=C1C : reported photoluminescence quantum yield = ?
## Output 0.57

## Input Entry c1ccc(-c2nnc(-c3ccc(N4c5ccccc5Oc5ccccc54)cc3)n2-c2ccccc2)cc1 : reported photoluminescence quantum yield = ?
## Output 0.127

## Input Entry Fc1c(-n2c3ccccc3c3ccccc32)c(-c2nnc(-c3ccccc3)o2)c(-n2c3ccccc3c3ccccc32)c(-n2c3ccccc3c3ccccc32)c1-n1c2ccccc2c2ccccc21 : reported photoluminescence quantum yield = ?
## Output 0.1

## Input Entry CCCCCCC1(CCCCCC)c2cc(-c3nc(-c4ccc5c(c4)C(CCCCCC)(CCCCCC)c4cc(-n6c7ccc(C(C)(C)C)cc7c7cc(C(C)(C)C)ccc76)ccc4-5)nc(-c4ccc5c(c4)C(CCCCCC)(CCCCCC)c4cc(-n6c7ccc(C(C)(C)C)cc7c7cc(C(C)(C)C)ccc76)ccc4-5)n3)ccc2-c2ccc(-n3c4ccc(C(C)(C)C)cc4c4cc(C(C)(C)C)ccc43)cc21 : reported photoluminescence quantum yield = ?
## Output 0.99

## Input Entry CN(C)c1ccc(/C=C/C=C2\CC/C(=C\c3ccc(N(C)C)cc3)C2=O)cc1 : reported photoluminescence quantum yield = ?
## Output 0.11

---

test: photoluminescence quantum yield (fraction); solvent given as SMILES; conditions: in CCO
Measured Attribute: photoluminescence quantum yield
Write the value as a bare number.

## Input Entry CCN(CC)c1ccc2cc3c([o+]c2c1)/C(=C/Nc1ccccc1)CCC3 : reported photoluminescence quantum yield = ?
## Output 0.18

## Input Entry N#C/C(=C\c1ccncc1)c1nc(-c2ccccc2)cs1 : reported photoluminescence quantum yield = ?
## Output 0.6

## Input Entry COCCOc1cc(C=O)c(OCCOC)cc1C=O : reported photoluminescence quantum yield = ?
## Output 0.18

## Input Entry c1ccc(-c2c3ccccc3c(-c3cncnc3)c3ccccc23)cc1 : reported photoluminescence quantum yield = ?
## Output 0.4

## Input Entry Cc1c(COC(=O)c2ccccc2Br)n2c(OCC(=O)c3ccccc3Br)c(C)c(=O)n2c1=O : reported photoluminescence quantum yield = ?
## Output 0.841

## Input Entry O=S(=O)([O-])c1ccc(O)c2ccccc12 : reported photoluminescence quantum yield = ?
## Output 0.18

## Input Entry CC1=[N+]2C(=C(c3c4ccccc4c(-c4ccccc4)c4ccccc34)c3ccc(C)n3[B-]2(F)F)C=C1 : reported photoluminescence quantum yield = ?
## Output 0.006

## Input Entry CC(C)[Si]1(C(C)C)c2cc(C=C(C#N)C#N)ccc2-c2ccc(N(C)C)cc21 : reported photoluminescence quantum yield = ?
## Output 0.16

## Input Entry COC(=O)C(Cc1ccc2oc(-c3ccc(N(C)C)cc3)nc2c1)NC(=O)OC(C)(C)C (stereo unspecified) : reported photoluminescence quantum yield = ?
## Output 0.98

## Input Entry N#Cc1ccc(N)c2nonc12 : reported photoluminescence quantum yield = ?
## Output 0.059

## Input Entry CC(C)Nc1cc2c(cc1F)c(=O)c1cc(F)c(NC(C)C)cc1n2C : reported photoluminescence quantum yield = ?
## Output 0.31

---

test: photoluminescence quantum yield (fraction); solvent given as SMILES; conditions: in CC#N
Classify by measured photoluminescence quantum yield: 1 if it is equal to or exceeds 0.2, -1 if it is smaller.

## Input Hi team, for c1ccc(-c2nc3c(c4c2-c2ccccc2CC4)-c2ccccc2CC3)cc1 , is the recorded photoluminescence quantum yield at or above 0.2?
## Output -1

## Input Hi team, for CCOC(=O)c1ccccc1-c1c2ccc(=[N+](CC)CC)cc-2oc2cc(N(CC)CC)ccc12 , is the recorded photoluminescence quantum yield at or above 0.2?
## Output 1

## Input Hi team, for CCc1c(C)[nH]c(C2=[N+]3C(=Cc4c(C)c(CC)c(C)n4[B-]3(F)F)c3ccccc32)c1C , is the recorded photoluminescence quantum yield at or above 0.2?
## Output -1

## Input Hi team, for N#Cc1cc2ccc(O)cc2oc1=N , is the recorded photoluminescence quantum yield at or above 0.2?
## Output -1

## Input Hi team, for COC(=O)C(Cc1ccc2oc(-c3ccncc3)nc2c1)NC(=O)OC(C)(C)C (stereo not given) , is the recorded photoluminescence quantum yield at or above 0.2?
## Output 1

---

test: photoluminescence quantum yield (fraction); solvent given as SMILES; conditions: in Cc1ccccc1
For each of the molecules below, state its photoluminescence quantum yield.
Write the value as a bare number.

## Input Entry CCCCCCCCOC(=O)c1ccc(-c2cc3ccc4cc(-c5ccc(C(=O)OCCCCCCCC)cc5)cc5ccc(c2)c3c45)cc1 : reported photoluminescence quantum yield = ?
## Output 0.33

## Input Entry CC1(C)c2ccccc2N(c2ccc3c(c2)c2cc(N4c5ccccc5C(C)(C)c5ccccc54)ccc2c2nc(C#N)c(C#N)nc32)c2ccccc21 : reported photoluminescence quantum yield = ?
## Output 0.12

## Input Entry Cc1cc(C)c(B(c2c(C)cc(C)cc2C)c2c(C)cc(N3c4ccccc4Oc4ccccc43)cc2C)c(C)c1 : reported photoluminescence quantum yield = ?
## Output 0.44

## Input Entry CC(C)(C)c1ccc2c(c1)c1cc(C(C)(C)C)ccc1n2-c1ccc(C#Cc2ccc(C#Cc3ccc(-n4c5ccc(C(C)(C)C)cc5c5cc(C(C)(C)C)ccc54)cc3)cc2)cc1 : reported photoluminescence quantum yield = ?
## Output 0.86

## Input Entry COc1cc(C2=c3c(c4ccc(C(C)(C)C)cc4c4cc(C(C)(C)C)ccc34)=[N+]3C2=Nc2c(-c4cc(OC)c(OC)c(OC)c4)c4c5ccc(C(C)(C)C)cc5c5cc(C(C)(C)C)ccc5c4n2[B-]3(F)F)cc(OC)c1OC : reported photoluminescence quantum yield = ?
## Output 0.01

## Input Entry COc1ccc2c3cccc4c(OC)ccc(c5cccc1c52)c43 : reported photoluminescence quantum yield = ?
## Output 0.76

## Input Entry CCCCCCOc1ccc(C#Cc2ccc(C#CC#Cc3ccc(C#Cc4ccc(OCCCCCC)c(OCCCCCC)c4)c4nsnc34)c3nsnc23)cc1OCCCCCC : reported photoluminescence quantum yield = ?
## Output 0.58

## Input Entry COc1ccc(C2=C(c3ccc([N+](=O)[O-])cc3)C(c3ccccc3)=[N+]3C2=Nc2c(-c4ccc(OC)cc4)c(-c4ccc([N+](=O)[O-])cc4)c(-c4ccccc4)n2[B-]3(F)F)cc1 : reported photoluminescence quantum yield = ?
## Output 0.05

## Input Entry CC(C)(C)c1ccc2c(c1)c1cc(C(C)(C)C)ccc1n2-c1ccc2oc3nc4oc5ccc(C(F)(F)F)cc5c4cc3c2c1 : reported photoluminescence quantum yield = ?
## Output 0.094

## Input Entry CCCCCCC(CCCCCC)N1C(=O)c2cccc3c(-c4cc(OC)c(OC)c(OC)c4)ccc(c23)C1=O : reported photoluminescence quantum yield = ?
## Output 0.71

## Input Entry Cc1ccc(OCc2cc(=O)oc3c2ccc2ccccc23)cc1 : reported photoluminescence quantum yield = ?
## Output 0.0798

## Input Entry CN(C)c1ccc(C2=Nc3sc4cc(Cl)ccc4[n+]3[B-](F)(F)O2)cc1 : reported photoluminescence quantum yield = ?
## Output 0.91

## Input Entry CC(C)c1cc(C(C)C)c(B2c3ccccc3Oc3cc(N4c5ccccc5C5(c6ccccc6Oc6ccccc65)c5ccccc54)ccc32)c(C(C)C)c1 : reported photoluminescence quantum yield = ?
## Output 0.56

## Input Entry CCN(CC)c1ccc([N+]2=Cc3ccc4c5c(ccc4c3O[B-]2(c2c(F)c(F)c(F)c(F)c2F)c2c(F)c(F)c(F)c(F)c2F)C=[N+](c2ccc(N(CC)CC)cc2)[B-](c2c(F)c(F)c(F)c(F)c2F)(c2c(F)c(F)c(F)c(F)c2F)O5)cc1 : reported photoluminescence quantum yield = ?
## Output 0.33

---

assay: photoluminescence quantum yield (fraction); solvent given as SMILES; details: in ClCCl
Measured Attribute: photoluminescence quantum yield
Write the value as a bare number.

## Input Entry CCOC(=O)c1ccc(C2CC(c3cccc4ccccc34)=NN2c2ccc(F)cc2)cc1 (stereo not drawn) : reported photoluminescence quantum yield = ?
## Output 0.191

## Input Entry COc1cccc(OC)c1-c1c2ccc(=[N+]3CCCCC3)cc-2oc2cc(N3CCCCC3)ccc12 : reported photoluminescence quantum yield = ?
## Output 0.86

## Input Entry CCN(CC)c1ccc2n1[B-](F)(F)[N+]1=CC(/C=C/C(=O)OC(C)(C)C)=CC1=C2c1c(C)cc(C)cc1C : reported photoluminescence quantum yield = ?
## Output 0.26

## Input Entry CCCCCCN1C(=O)c2cccc3c(-c4ccc(-c5cc(-c6ccc(Cl)cc6)n(-c6ccccc6)n5)s4)ccc(c23)C1=O : reported photoluminescence quantum yield = ?
## Output 0.33

## Input Entry CC1=CC(C)=[N+]2C1=Cc1c3ccccc3c(C#Cc3cccs3)n1[B-]2(F)F : reported photoluminescence quantum yield = ?
## Output 0.44

## Input Entry c1ccc(C2=C(c3ccccc3)c3cccc4c5c(cc(c34)O2)=NC2CCCCC2N=5)cc1 (stereo not drawn) : reported photoluminescence quantum yield = ?
## Output 0.52

## Input Entry C(=C\c1cc(/C=C/c2ccc(N(c3ccccc3)c3ccccc3)cc2)ncn1)/c1ccc(N(c2ccccc2)c2ccccc2)cc1 : reported photoluminescence quantum yield = ?
## Output 0.55

## Input Entry c1ccc2c(c1)ccc1ccc3ccc4ccc5ccccc5c4c3c12 : reported photoluminescence quantum yield = ?
## Output 0.02

## Input Entry COc1cc(/C=C/c2ccncc2)c(OC)cc1C=O : reported photoluminescence quantum yield = ?
## Output 0.26

## Input Entry Clc1ccc(N2c3sc4ccccc4c3Sc3c2sc2ccccc32)cc1 : reported photoluminescence quantum yield = ?
## Output 0.18

## Input Entry O=S1(=O)c2ccccc2C2(c3cc(-c4ccc(-n5c6ccccc6c6ccccc65)cc4)ccc3-c3ccc(-c4ccc(-n5c6ccccc6c6ccccc65)cc4)cc32)c2ccccc21 : reported photoluminescence quantum yield = ?
## Output 0.81

## Input Entry CN(C)c1ccc(/C=C/C=C2\CC/C(=C\c3ccc(N(C)C)cc3)C2=O)cc1 : reported photoluminescence quantum yield = ?
## Output 0.36

## Input Entry CC1=CC(C)=[N+]2C1=Cc1c3ccccc3c(C#Cc3ccsc3)n1[B-]2(F)F : reported photoluminescence quantum yield = ?
## Output 0.8

## Input Entry CCN(CC)c1ccc2cc3c([o+]c2c1)/C(=C/Nc1ccccc1)CCC3 : reported photoluminescence quantum yield = ?
## Output 0.31

## Input Entry CN(C)c1ccc(/C=C/c2cnc(/C=C/c3ccc(C#N)cc3)o2)cc1 : reported photoluminescence quantum yield = ?
## Output 0.5

## Input Entry c1ccc2cc(-c3c4ccccc4c(-c4ccc(-n5c6ccccc6c6ccccc65)cc4)c4ccccc34)ccc2c1 : reported photoluminescence quantum yield = ?
## Output 0.76

## Input Entry CN(C)c1ccc(/C=C/c2cnc3ccccc3n2)cc1 : reported photoluminescence quantum yield = ?
## Output 0.59

## Input Entry COc1ccc(-c2cc3c(ccc4sc5ccc6sc(-c7ccc(C#N)cc7)cc6c5c43)s2)cc1 : reported photoluminescence quantum yield = ?
## Output 0.09
